Just for reference, patent US20210284747A1 is where these values come from.

# measured_target: Full length LIGHT W198A on HEK293FF cells (Homo sapiens (Human), UniProt O43557 1-240)
# Sequence (O43557 whole entry W198A): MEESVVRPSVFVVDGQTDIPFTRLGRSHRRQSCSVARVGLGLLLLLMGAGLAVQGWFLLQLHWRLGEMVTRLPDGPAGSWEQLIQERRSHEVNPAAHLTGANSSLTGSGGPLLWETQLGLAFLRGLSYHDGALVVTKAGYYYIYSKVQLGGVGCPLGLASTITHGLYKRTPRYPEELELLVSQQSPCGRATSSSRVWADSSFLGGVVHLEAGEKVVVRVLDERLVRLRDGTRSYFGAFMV
# experimental_protocol: flow cytometry, HEK293FF, mAb at EC50
Measured % of WT binding, listed per entry.
Hi! Could you send only the number? It should be in %, unit omitted.

Q: Input 3A07 chimeric IgG4 mAb (antibody, V domains shown, Chimeric human IgG4 (S-to-P, L-to-E) with human CL, as m1; also called Parental 3A07) VH: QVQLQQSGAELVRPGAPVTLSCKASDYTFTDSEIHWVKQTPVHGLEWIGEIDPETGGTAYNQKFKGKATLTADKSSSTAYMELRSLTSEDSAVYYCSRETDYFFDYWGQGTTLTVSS VL: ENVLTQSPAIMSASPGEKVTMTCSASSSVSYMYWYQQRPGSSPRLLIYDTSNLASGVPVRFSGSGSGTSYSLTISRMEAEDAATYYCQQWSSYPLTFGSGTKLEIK , output reported % of WT binding.
A: 82

Q: Give % of WT binding for the following binder: 3C10 chimeric IgG4 mAb (antibody, V domains shown, Chimeric human IgG4 (S-to-P, L-to-E) with human CL, as m1; also called Parental 3C10) VH: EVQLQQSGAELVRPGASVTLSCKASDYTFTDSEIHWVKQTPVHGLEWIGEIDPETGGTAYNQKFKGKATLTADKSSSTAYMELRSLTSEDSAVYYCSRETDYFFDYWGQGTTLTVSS VL: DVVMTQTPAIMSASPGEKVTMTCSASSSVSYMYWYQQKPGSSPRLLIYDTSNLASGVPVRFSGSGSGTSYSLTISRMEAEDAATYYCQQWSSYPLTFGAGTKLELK
A: 86

Q: // Input: 3B04 chimeric IgG4 mAb (antibody, V domains shown, also called Parental 3B04) VH: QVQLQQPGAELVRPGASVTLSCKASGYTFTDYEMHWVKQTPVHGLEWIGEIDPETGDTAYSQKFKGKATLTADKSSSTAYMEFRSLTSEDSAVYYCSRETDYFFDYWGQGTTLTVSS VL: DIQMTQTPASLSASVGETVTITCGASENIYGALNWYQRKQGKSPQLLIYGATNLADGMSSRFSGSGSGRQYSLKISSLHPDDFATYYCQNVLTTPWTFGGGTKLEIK . Output its % of WT binding only.
A: 81
